pIC50: −log10 of the molar value.
Let's go through some recorded pIC50 values for His-Tagged hOGA (Homo sapiens (Human), UniProt O60502) together.

Query: Missing value: pIC50, His-Tagged hOGA (Homo sapiens (Human), UniProt O60502), entry CC(=O)Nc1nnc(N2CCN(C(C)c3ccc4c(c3)OC(C)C4)CC2)s1 (racemic) . Fill in?
Reply: > 7.30

Query: Missing value: pIC50, His-Tagged hOGA (Homo sapiens (Human), UniProt O60502), entry CC1Cc2ccc(C(C)N3CCN(c4ccc(S(C)(=O)=O)cc4)CC3)cc2O1 (racemic) . Fill in?
Reply: 6.70 to 7.30

Query: Missing value: pIC50, His-Tagged hOGA (Homo sapiens (Human), UniProt O60502), entry CC(=O)Nc1nnc(N2CCN(C(C)c3ccc4c(c3)O[C@H](C)C4)CC2)s1 (single isomer, unassigned) [Example 11] . Fill in?
Reply: 6.00 to 6.70

----------
Let's go through some recorded pIC50 values for His-Tagged hOGA (Homo sapiens (Human), UniProt O60502) together.
pIC50: −log10 of the molar value.

MOLECULE: CC(=O)Nc1nnc(N2CCN(C(C)c3ccc4c(c3)O[C@H](C)C4)CC2)s1 (single isomer, unassigned) [Example 12]
QUANTITY KIND: pIC50
RECORDED MEASUREMENT: > 7.30
//
MOLECULE: CC(c1ccc2c(c1)O[C@@H](C)C2)N1CCN(c2ncc3c(n2)CCNC3=O)CC1 (single isomer, unassigned) [Example 18]
QUANTITY KIND: pIC50
RECORDED MEASUREMENT: 6.70 to 7.30
//
MOLECULE: CC(c1ccc2c(c1)O[C@@H](C)C2)N1CCN(c2ncc3c(n2)CCNC3=O)CC1 (stereo partly shown) [Example 15]
QUANTITY KIND: pIC50
RECORDED MEASUREMENT: 6.00 to 6.70

# input for lookup
Query: Missing value: pIC50, His-Tagged hOGA (Homo sapiens (Human), UniProt O60502), entry CC(=O)Nc1nnc(N2CCN(C(C)c3ccc4c(c3)O[C@@H](C)C4)CC2)s1 (stereo partly shown) [Example 14] . Fill in?
Reply: 6.00 to 6.70
